tested on: HS 578T breast; test: NCI-60 one-dose screen, 48 h (100 = growth as untreated, 0 = no growth, -100 = all killed); conditions: 10 µM unless noted
This is part of a sample that, as a whole, favours compounds with a hit. Of some 83,000 tested, about 20% had one in any assay.
Consider the cut-off 70%. If the recorded growth is strictly smaller, the label is criterion met; if not, the label is criterion not met.

Ask: Please check: growth for `CCN1CCN(Cc2ccc(NC(=O)c3cccc(C#Cc4cccc5[nH]nc(N)c45)c3)cc2C(F)(F)F)CC1` , strictly under 70% or not?
Result: criterion met

Ask: Determine whether this compound shows growth lower than 70% (ties excluded): `[2H]c1nc(Nc2ncc3cc(C(=O)N(C)C)n(C4CCCC4)c3n2)c([2H])c([2H])c1N1C([2H])([2H])C([2H])([2H])NC([2H])([2H])C1([2H])[2H]`
Result: criterion met

Ask: # TODO verify growth < 70% strictly for this compound: `C=C1C(=O)O[C@H]2[C@H]1CC/C(COC(=O)CCCCC(=O)OC/C1=C/CC[C@@]3(C)O[C@H]3[C@H]3OC(=O)C(=C)[C@@H]3CC1)=C\CC[C@@]1(C)O[C@@H]21`
Result: criterion not met

Ask: Does the reported growth of COc1cc2c(cc1OC)C(Sc1ccc(Cl)cc1)c1c(nc(N)c(C#N)c1N)O2 (configuration not stated) stay below 70%?
Result: criterion met

Ask: Is growth of `CCCn1cc(/C=N\N=C2\C(=O)Nc3ccc(C)cc32)c2ccccc21` strictly below 70%?
Result: criterion not met

Ask: Hi there! Is growth for `COc1ccc2cc(/C=C3\N=C(c4cc(OC)c(OC)c(OC)c4)OC3=O)c(OC)nc2c1` below 70%, do you know?
Result: criterion not met

Ask: is_below(growth, 70%) for CC(=O)Nc1nc2c(c(N)c1C#N)C(c1cccc(Cl)c1)C1=C(CCCC1=O)N2c1sc2c(c1C#N)CCCC2 (configuration not stated) ?
Result: criterion not met

###

System: K-562 leukemia
Test: NCI-60 one-dose screen, 48 h
Settings: 10 µM unless noted
Method: Cells are grown in 96 well plates and exposed to the test compound for 48 hours. Compounds are tested at a single concentration, which is 10^-5 M for most compounds. The reported endpoint is percent growth (GI% or GIPRCNT), where numbers from 0 - 100% represent growth inhibition, and numbers from -100% - 0 represent cell death. For example, a value of 40 represents 60% growth inhibition. A value of 0 means no net growth occurred over the course of the experiment. […]
About 83,000 compounds went through this panel and 20% of them were active in at least one assay; those are over-represented in the sample as a whole. Active and inactive are the calls of the source. Rule for the calls: active = growth percent below 10; inactive = the rest.
Give one outcome, nothing more. List: Yes = active, No = inactive

Ask: What was the test verdict on `O=C(O)c1cn(C2CC2)c2cc(N3CCN(Cc4nnc(Nc5ccccc5)o4)CC3)c(F)cc2c1=O` ?
Result: No

Ask: Check the results log: what was the call for `CCc1n(Cc2ccc3ccccc3c2)c2ccccc2[n+]1Cc1ccc2ccccc2c1` ?
Result: No

Ask: Given `CCCn1c2cc(OCc3cn(-c4ccc(Cl)cc4)nn3)ccc2c2ccnc(C)c21` , state the outcome it received in this test.
Result: No

Ask: Please indicate how the test categorized CCCCN(CCCC)CC(CN(CC)CC)OC(=O)Nc1ccccc1 (stereo not drawn) .
Result: No

Ask: Assay result, entry `C=C1C(=O)O[C@H]2[C@H]1CC/C(COC(=O)c1cn(C)c3ccccc13)=C\CC[C@@]1(C)O[C@@H]21` — outcome?
Result: Yes

Ask: Each compound tested received a call. Report the one for `CCCCCOC(=O)c1ccccc1O` .
Result: No

Ask: Write down the call the test reported for this compound. Item: `C=C1C(=O)O[C@H]2[C@H]1CC/C(COC(=O)c1c[nH]c3ccccc13)=C\CC[C@@]1(C)O[C@@H]21`
Result: Yes

Ask: For this compound, state the assay outcome: `CC(C)(C)c1ccc(O)c(Cc2cc(C(C)(C)C)ccc2O)c1`
Result: No

Ask: Test call, this compound: `COc1ccc2oc(=O)cc(-c3nc4ccc(N)cc4[nH]3)c2c1`
Result: No

Ask: Just curious, what result did O=C1NC(c2ccc(F)cc2)N=C2C(c3ccccc3)=NOC12 (stereo not drawn) get here?
Result: No

Ask: What is the recorded call for this compound in the test? O=C1CC23OC4ON=C(Br)C4C2C(O)c2ccccc2N13 (stereo not drawn)
Result: No

Ask: Could you check what this test reported for COc1cc(C2=NN(C(C)=O)C(c3cccc(Nc4ccnc5cc(C(F)(F)F)ccc45)c3)C2)cc(OC)c1OC (stereo not drawn) ?
Result: No

Ask: Hey, what did the test say about `N#Cc1c(-c2ccc(F)cc2)nc(N/N=C/c2c[nH]c3ccccc23)nc1N1CCOCC1` ?
Result: Yes

Ask: Test call, this compound: Cc1nc2sc(C(=O)Nc3ccccc3)c(N)c2cc1C(C)O (stereo not drawn)
Result: No

Ask: Any idea what this test logged for `CCCn1c2cc(OCc3cn(-c4ccc(Br)cc4)nn3)ccc2c2ccnc(C)c21` ?
Result: No

Ask: Give the logged outcome of this assay for the following compound: `COc1ccccc1Nc1nnc(-c2ccc(Cl)cc2)o1`
Result: No

Ask: Status in this test for `COc1ccc2c(c1)OC13Oc4cc(OC)ccc4C=C1CCCCC3=C2` ?
Result: No

Ask: Recorded test call requested for `COc1ccc(/C=C/C(=O)c2ccc(NC(=O)CSc3nnc(-c4ccc(OC)c(OC)c4)n3-c3ccccc3)cc2)cc1`
Result: Yes

Ask: How was `COc1ccc(/C=C(/C(=O)N2CCCC2)c2cc(OC)c(OC)c(OC)c2)cc1` classified in this test?
Result: No

Ask: Recorded test outcome, item COc1cc(C2=NNC(c3ccc(N(C)C)cc3)C2)cc(OC)c1OC (stereo not drawn)
Result: Yes

Ask: Record lookup: outcome of this test for `C=CCn1c(SCC(=O)Nc2ccc(C(=O)/C=C/c3ccc(Cl)cc3)cc2)nnc1-c1cc(OC)c(OC)c(OC)c1` ?
Result: No

Ask: Kindly provide the recorded test outcome for the following compound: `C=C1C(=O)O[C@H]2[C@H]1CC/C(COC(=O)N1CCC[C@H]1C(=O)Nc1ccc(OC)c(C(N)=O)c1O)=C\CC[C@@]1(C)O[C@@H]21`
Result: No

Ask: Could you please tell me the result logged for `C=C1C(=O)O[C@H]2[C@H]1CCC(/C=N/c1ncc(Br)cc1N)=C\CC[C@@]1(C)O[C@@H]21` in this assay?
Result: Yes

Ask: How did this test come out for `NCCCn1c2c(c3cc(-c4ccn[nH]4)ccc3c1=O)C(=O)c1ccccc1-2` ?
Result: Yes

Ask: For `NS(=O)(=O)c1ccc(N2Cc3cc(Cl)ccc3OC3=C2C(=O)N(CC2CCCCC2)C3=O)cc1` , what call appears in the results of this test?
Result: Yes

Ask: Record request — test call for `COc1ccccc1C(=O)/C=C/c1cc2cccc(OC)c2[nH]c1=O`
Result: Yes

Ask: Recorded call for `CSc1nc(-c2cccs2)c2c(N)[nH]nc2n1` ?
Result: No

Ask: For `CCCCOc1nc2ccc(C)cc2cc1/C=C/C(=O)/C=C/c1ccc2c(c1)OCO2` , what call appears in the results of this test?
Result: No

Ask: Assay outcome for Cc1ccccc1NC(=O)c1sc2nc(C)c(C(C)O)cc2c1N (stereo not drawn) : what was it?
Result: No

Ask: Please let me know the test result on file for `CC1(C)[C@@H](O)CC[C@]2(C)[C@H]3CC[C@@H]4[C@H]5[C@H](c6cn(-c7ccccc7)nn6)CC[C@]5(CO)CC[C@@]4(C)[C@]3(C)CC[C@@H]12` .
Result: No

Ask: Recorded test call requested for `C=C(C)[C@@H]1CC[C@]2(C(=O)O)CC[C@]3(C)[C@H](CC[C@@H]4[C@@]5(C)C[C@@H](CC#Cc6ccc(Cl)cc6)C(=O)C(C)(C)[C@@H]5CC[C@]43C)[C@@H]12`
Result: No

Ask: Assay result, entry COC1=CC2C=C(C3N(c4ccccc4)NC(=O)[C@@H]4CCCN34)C(=O)NC2C=C1 (stereo partly drawn) — outcome?
Result: No

Ask: Answer briefly: the call reported for `C=C1C(=O)O[C@H]2[C@H]1CC/C(COC(=O)CCC(=O)OC/C1=C/CC[C@@]3(C)O[C@H]3[C@H]3OC(=O)C(=C)[C@@H]3CC1)=C\CC[C@@]1(C)O[C@@H]21` in this assay.
Result: Yes

Ask: Recorded test outcome, item CCC1S/C(=N\N=C(/C)c2ccc[nH]2)N(c2ccccc2)C1=O (stereo not drawn)
Result: No

Ask: How did this test come out for `Cc1cccc(C)c1NCc1nnc(-c2ccc(O)cc2)o1` ?
Result: No

Ask: Can you look up the reported call for `C/C(=N\NC(=O)c1ccncc1)c1ccc(N)cc1` for me?
Result: No

Ask: Please let me know the test result on file for `C=C1C(=O)O[C@H]2[C@H]1CC/C(COC(=O)n1ccnc1)=C\CC[C@@]1(C)O[C@@H]21` .
Result: No

Ask: Fill in: this test's call for O=CN1N=C(c2ccc(F)cc2)CC1c1cccc(Nc2ccnc3cc(C(F)(F)F)ccc23)c1 (stereo not drawn) is ___
Result: No
